- test: Pharmacokinetic evaluation in rats: plasma gemcitabine and dFdU by LC-MS/MS
- experimentalContext: male, Sprague-Dawley, rat, plasma, iv, 2 mg/kg
recordedEndpoint: clearance
I'd appreciate it if you included the unit after the number.

Ask | Report clearance for Nc1ccn([C@@H]2O[C@H](CO)[C@@H](O)C2(F)F)c(=O)n1
Reply | 4.77 mL/min/kg

* * *

- test: in vivo
- experimentalContext: male, Sprague-Dawley, rat, in vivo, iv, 2 mg/kg
recordedEndpoint: Vd (L/kg)
// return numeric value only (unit: L/kg, not printed)

Ask | Report Vd for Nc1ccn([C@@H]2O[C@H](CO)[C@@H](O)C2(F)F)c(=O)n1
Reply | 2.73

* * *

- System: BxPC-3 pancreatic cancer cell lines
- test: Pancreatic cancer cell growth inhibition, WST assay
- Type: cell-based
- experimentalContext: BxPC-3, 72 hours treatment, absorbance 450 nm
recordedEndpoint: IC50 (nM)
// return numeric value only (unit: nM, not printed)

Example 1: paclitaxel conjugated to U of GGTGGTGGTGGUMGTGGTGGTGGTGG (SEQ ID NO: 4), M=Gemcitabine; linker -acrylamide-C6-NH-succinic acid- (DNA GGTGGTGGTGGNNGTGGTGGTGGTGG; paclitaxel via linker; gemcitabine at M; modified_base 12 OTHER; deoxyuridine(dU); modified_base 13 OTHER; Gemcitabine) ... 2210
Example 2 (GGTGGTGGTGGNTNTGGTGGTGGTGG; paclitaxel via acrylamide-C6-NH-succinic acid linker; modified_base 12 OTHER; deoxyuridine(dU); modified_base 14 OTHER; gemcitabine) ... 230
Example 3 (GGTGGTGGTGGTNNTGGTGGTGGTGG; paclitaxel via acrylamide-C6-NH-succinic acid linker on U; modified_base 13 OTHER; deoxyuridine(dU); modified_base 14 OTHER; gemcitabine) ... 1000

Here is the next item to consider.
Ask | Report IC50 for Comparative Example 3 (GGTGGTGGTGGTNGTGGTGGTGGTGG; paclitaxel via acrylamide-C6-NH-succinic acid linker; modified_base 13 OTHER; deoxyuridine(dU)-acrylamide-C6-NH2)
Reply | 40
